Tested on: CCRF-CEM leukemia
Experiment: NCI-60 one-dose screen, 48 h
Conditions: 10 µM unless noted
This is part of a sample that, as a whole, favours compounds with a hit. Of some 83,000 tested, about 20% had one in any assay. Activity calls are given as the source filed them. How the source made its calls: active means growth percent below 10; inactive means the rest.
Respond using exactly one of the listed classes: active, inactive

# example entries with known answers
COc1cc(/C=C2\C(=O)N(Cc3ccc(Cl)cc3)c3ccccc32)cc(OC)c1OC : active
Cn1ncc2c(Nc3ccccc3Cl)nc(Cl)nc21 : inactive
CCc1c(Nc2ccc(C)cc2)[nH]c(N)nc1=S : inactive
CN(C)C(=O)c1cc2cnc(Nc3ccc(-c4csc5c(=O)cc(N6CCOCC6)oc45)cc3)nc2n1C1CCCC1 : active
CC(C)(C)CC(C)(C)Nc1c(-c2ccc(C(F)(F)F)cc2)nc2cnccn12 : inactive

Please examine the following record next.
[Q] Hi, do you know how COc1cc2oc(-c3cccc(C(=O)Nc4ccc(Cl)cc4)c3)cc(=O)c2c(OC)c1OC came out in this test?
[A] inactive
